molecular target: noradrenaline (NA) reuptake in synaptosomes (Rattus norvegicus); construct: in synaptosomes as described in WO 97/16451; from tissue; experiment: Inhibition of NA reuptake in synaptosomes; assay type: biochemical; conditions: synaptosomes, 3H-NA; read-out: NA-uptake IC50
Sequence (Q63380 1-617): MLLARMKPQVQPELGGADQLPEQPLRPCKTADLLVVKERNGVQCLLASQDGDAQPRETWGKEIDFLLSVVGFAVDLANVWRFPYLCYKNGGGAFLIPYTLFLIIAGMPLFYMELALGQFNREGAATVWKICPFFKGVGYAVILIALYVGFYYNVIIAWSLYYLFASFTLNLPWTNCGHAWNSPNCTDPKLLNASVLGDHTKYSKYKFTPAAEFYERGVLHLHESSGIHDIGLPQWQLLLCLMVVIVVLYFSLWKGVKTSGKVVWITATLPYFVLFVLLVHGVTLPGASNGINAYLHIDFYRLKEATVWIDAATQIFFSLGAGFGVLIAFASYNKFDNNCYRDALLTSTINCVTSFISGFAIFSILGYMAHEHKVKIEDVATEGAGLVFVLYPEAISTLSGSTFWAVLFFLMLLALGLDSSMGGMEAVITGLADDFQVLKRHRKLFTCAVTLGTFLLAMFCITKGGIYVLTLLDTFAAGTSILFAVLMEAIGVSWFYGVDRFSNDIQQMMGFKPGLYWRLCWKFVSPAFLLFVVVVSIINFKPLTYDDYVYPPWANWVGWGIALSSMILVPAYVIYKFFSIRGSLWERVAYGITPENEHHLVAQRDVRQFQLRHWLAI
pIC50: −log10 of the molar value.
metric: pIC50

INSERT INTO results (molecule_smiles, operator_symbol, readout_number) VALUES
  ('CCN(C(=O)CC1CCNCC1)c1cccc(Cl)c1Cl', '=', 6.04),
  ('CN1CCC(CC(=O)N(C)c2ccc(Cl)c(Cl)c2)CC1', '=', 7.16),
  ('CCN(C(=O)CC1CCN(C)CC1)c1cccc(Cl)c1Cl', '<', 6.00),
  ('CCN(C(=O)CC1CCNCC1)c1cccc(Cl)c1', '=', 6.34),
  ('CCN(C(=O)CC1CCN(C)CC1)c1ccc(Cl)c(Cl)c1Cl', '=', 7.09);

---

target: dopamine (DA) reuptake in synaptosomes (Rattus norvegicus, UniProt P23977); construct: in synaptosomes as described in WO 97/16451; from tissue; test: Inhibition of DA reuptake in synaptosomes; format: biochemical
Sequence (P23977 whole entry): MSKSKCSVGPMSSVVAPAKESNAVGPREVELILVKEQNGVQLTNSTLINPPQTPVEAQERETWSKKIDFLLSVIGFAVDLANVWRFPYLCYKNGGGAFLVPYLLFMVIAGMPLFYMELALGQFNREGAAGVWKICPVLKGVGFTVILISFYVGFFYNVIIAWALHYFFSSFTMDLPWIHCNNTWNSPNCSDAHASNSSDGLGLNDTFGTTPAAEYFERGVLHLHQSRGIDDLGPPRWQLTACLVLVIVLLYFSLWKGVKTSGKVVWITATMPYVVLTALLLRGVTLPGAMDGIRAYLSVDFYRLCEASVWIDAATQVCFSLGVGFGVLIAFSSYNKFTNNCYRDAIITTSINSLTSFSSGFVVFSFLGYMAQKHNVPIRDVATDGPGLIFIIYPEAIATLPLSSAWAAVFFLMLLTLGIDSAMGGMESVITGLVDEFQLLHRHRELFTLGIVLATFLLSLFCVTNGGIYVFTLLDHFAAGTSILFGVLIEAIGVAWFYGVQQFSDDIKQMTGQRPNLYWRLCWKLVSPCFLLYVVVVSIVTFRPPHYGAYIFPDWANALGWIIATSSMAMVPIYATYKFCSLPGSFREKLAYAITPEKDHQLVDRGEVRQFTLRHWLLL
metric: IC50 (nM)

INSERT INTO measurements (compound, tested_on, metric, readout_number) VALUES
  ('CCCN1CCC(CC(=O)N(CC)c2ccc(Cl)c(Cl)c2)CC1 [Compound D9]', 'dopamine (DA) reuptake in synaptosomes (Rattus norvegicus, UniProt P23977)', 'IC50', 12);

---

Measured IC50 accompanies every entry in the list below.
target: serotonine (5-HT) reuptake in synaptosomes (Rattus norvegicus, UniProt P31652); construct: serotonine (5-HT) in synaptosomes as described in WO 97/16451; test: Inhibition of 5-HT reuptake in synaptosomes; settings: 3H-5-HT, read-out: 5-HT-uptake IC50
Sequence (P31652 whole entry): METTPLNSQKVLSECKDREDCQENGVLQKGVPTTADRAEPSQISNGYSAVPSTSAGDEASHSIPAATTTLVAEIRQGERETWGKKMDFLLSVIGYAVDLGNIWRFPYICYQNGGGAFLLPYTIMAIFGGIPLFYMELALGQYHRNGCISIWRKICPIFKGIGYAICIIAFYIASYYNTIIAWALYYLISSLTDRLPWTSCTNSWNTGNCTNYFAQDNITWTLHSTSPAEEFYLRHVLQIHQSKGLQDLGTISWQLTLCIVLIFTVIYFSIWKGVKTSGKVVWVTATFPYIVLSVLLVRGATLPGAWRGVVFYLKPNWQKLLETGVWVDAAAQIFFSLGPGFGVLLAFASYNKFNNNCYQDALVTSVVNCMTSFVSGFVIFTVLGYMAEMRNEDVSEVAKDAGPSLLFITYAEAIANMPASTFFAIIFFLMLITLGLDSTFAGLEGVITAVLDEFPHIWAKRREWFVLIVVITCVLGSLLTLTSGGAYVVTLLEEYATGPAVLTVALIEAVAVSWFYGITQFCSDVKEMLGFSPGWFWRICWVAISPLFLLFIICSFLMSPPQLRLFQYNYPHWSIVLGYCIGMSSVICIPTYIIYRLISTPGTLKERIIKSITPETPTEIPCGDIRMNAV
metric: IC50 (µM)

INSERT INTO results (compound, measurement_unit, operator_symbol, readout_number) VALUES
  ('CCN(C(=O)CC1CCNCC1)c1ccc(Cl)cc1Cl [Compound D5]', 'µM', '>', 1),
  ('CCN(C(=O)CC1CCN(C)CC1)c1ccc(Cl)c(Cl)c1 [Compound D1]', 'µM', '=', 1.4),
  ('CCN(C(=O)CC1CCNCC1)c1c(Cl)cccc1Cl [Compound C8]', 'µM', '>', 1),
  ('CCN(C(=O)CC1CCNCC1)c1ccc(Br)c(Cl)c1 [Compound D4]', 'µM', '=', 2.1),
  ('CCN(C(=O)CC1CCN(C(C)C)CC1)c1ccc(Cl)c(Cl)c1 [Compound D10]', 'µM', '=', 1.2),
  ('CCN(C(=O)CC1CCNCC1)c1ccc(Cl)cc1 [Compound C3]', 'µM', '>', 1),
  ('CN1CCC(CC(=O)N(C)c2ccc(Cl)c(Cl)c2)CC1 [Compound D12]', 'µM', '>', 1),
  ('CCN(C(=O)CC1CCN(C)CC1)c1cccc(Cl)c1Cl [Compound D8]', 'µM', '>', 1),
  ('CCN(C(=O)CC1CCN(C)CC1)c1ccc(Br)c(Cl)c1 [Compound D13]', 'µM', '=', 1.5),
  ('CCN(C(=O)CC1CCNCC1)c1cccc2ccccc12 [Compound C5]', 'µM', '>', 1),
  ('CCN(C(=O)CC1CCN(C)CC1)c1c(Cl)cccc1Cl [Compound D16]', 'µM', '>', 1),
  ('CCN(C(=O)CC1CCN(C)CC1)c1ccc(Br)c(Br)c1 [Compound D19]', 'µM', '=', 0.68),
  ('CCN(C(=O)CC1CCNCC1)c1cc(Cl)ccc1Cl [Compound C7]', 'µM', '>', 1),
  ('CCN(C(=O)CC1CCNCC1)c1ccc(Cl)c(Cl)c1 [Compound C1]', 'µM', '=', 1.5),
  ('CCCN1CCC(CC(=O)N(CC)c2ccc(Cl)c(Cl)c2)CC1 [Compound D9]', 'µM', '=', 0.78),
  ('CCN(C(=O)CC1CCN(C)CC1)c1cccc2ccccc12 [Compound D3]', 'µM', '>', 1),
  ('CCN(C(=O)CC1CCNCC1)c1ccc(Cl)c(Cl)c1Cl [Compound C10]', 'µM', '=', 1.4),
  ('CCN(C(=O)CC1CCNCC1)c1ccc(Cl)c(Br)c1 [Compound C13]', 'µM', '=', 1.2),
  ('CCN(C(=O)CC1CCNCC1)c1cccc(Cl)c1Cl [Compound C6]', 'µM', '>', 1),
  ('CCN(C(=O)CC1CCN(C)CC1)c1ccc(Cl)c(Cl)c1Cl [Compound D18]', 'µM', '=', 2.1);

---

pIC50: recorded values
molecular target: dopamine (DA) reuptake in synaptosomes (Rattus norvegicus, UniProt P23977); construct: in synaptosomes as described in WO 97/16451; from tissue; test: Inhibition of DA reuptake in synaptosomes; assay type: biochemical; conditions: synaptosomes, 3H-DA; read-out: DA-uptake IC50
pIC50: −log10 of the molar value.
metric: pIC50

INSERT INTO measurements (molecule_smiles, tested_on, operator_symbol, readout_number) VALUES
  ('CCN(C(=O)CC1CCNCC1)c1cccc2ccccc12', 'dopamine (DA) reuptake in synaptosomes (Rattus norvegicus, UniProt P23977)', '<', 6.00),
  ('CCN(C(=O)CC1CCNCC1)c1cccc(Cl)c1Cl', 'dopamine (DA) reuptake in synaptosomes (Rattus norvegicus, UniProt P23977)', '<', 6.00),
  ('CCN(C(=O)CC1CCN(C)CC1)c1cc(Cl)cc(Cl)c1', 'dopamine (DA) reuptake in synaptosomes (Rattus norvegicus, UniProt P23977)', '<', 6.00),
  ('CCN(C(=O)CC1CCN(C)CC1)c1cc(Cl)ccc1Cl', 'dopamine (DA) reuptake in synaptosomes (Rattus norvegicus, UniProt P23977)', '=', 5.77),
  ('CCN(C(=O)CC1CCN(C)CC1)c1cccc(Cl)c1', 'dopamine (DA) reuptake in synaptosomes (Rattus norvegicus, UniProt P23977)', '=', 6.01),
  ('CCN1CCC(CC(=O)N(CC)c2ccc(Cl)c(Cl)c2)CC1', 'dopamine (DA) reuptake in synaptosomes (Rattus norvegicus, UniProt P23977)', '=', 7.89),
  ('CCN(C(=O)CC1CCN(C)CC1)c1ccc(Br)c(Br)c1', 'dopamine (DA) reuptake in synaptosomes (Rattus norvegicus, UniProt P23977)', '=', 8.44),
  ('CCN(C(=O)CC1CCNCC1)c1c(Cl)cccc1Cl', 'dopamine (DA) reuptake in synaptosomes (Rattus norvegicus, UniProt P23977)', '<', 6.00),
  ('CCN(C(=O)CC1CCNCC1)c1ccc(Cl)c(Cl)c1', 'dopamine (DA) reuptake in synaptosomes (Rattus norvegicus, UniProt P23977)', '=', 7.82),
  ('CCN(C(=O)CC1CCNCC1)c1ccc(Cl)c(Br)c1', 'dopamine (DA) reuptake in synaptosomes (Rattus norvegicus, UniProt P23977)', '=', 8.10);
